Biological target: HLA-DR5w11 (DRB1*1101) (human)
Mark criterion met only for binding affinity ratio (IC50 of standard peptide / IC50 of test peptide) values smaller than -0.0004; exact matches and larger values are criterion not met.

Consider the following illustrative entries.
VSTVLLGGVGLVLYN (modifications not checked): criterion not met
KYLVIVFLIFFDLFL (modifications not checked): criterion met

Ask | For CVEVEKTASCGVWDE (modifications not checked) , is the recorded binding affinity ratio (IC50 of standard peptide / IC50 of test peptide) below the cut-off of -0.0004?
Reply | criterion not met

Ask | Moving on to the next binder: MKILSVFFLALFFII (modifications not checked)
Reply | criterion met
